# System: ribosomes
# procedure.summary: in vitro activity: binding to free ribosomes, VS1 fluorescence with erythromycin displacement
# applied.conditions: in vitro Activity of VM1-Carboxylic Acid Derivatives; together with VS1, fluorescence
property: t/2 (s)

a = CC1=C\[C@@H](O)CC(=O)Cc2nc(co2)C(=O)N2CC[C@@H](SCCCCC(=O)O)[C@@H]2C(=O)O[C@H](C(C)C)[C@H](C)/C=C/C(=O)NC\C=C\1 [Carboxylic c R,S]
b = CC1=C\[C@@H](O)CC(=O)Cc2nc(co2)C(=O)N2CCC=C2C(=O)O[C@H](C(C)C)[C@H](C)/C=C/C(=O)NC\C=C\1 [VM1, virginiamycin M1]
c = CC1=C\[C@@H](O)CC(=O)Cc2nc(co2)C(=O)N2CC[C@@H](SCC(=O)O)[C@@H]2C(=O)O[C@H](C(C)C)[C@H](C)/C=C/C(=O)NC\C=C\1 [Carboxylic a R,S]
d = CC1=C\[C@@H](O)CC(=O)Cc2nc(co2)C(=O)N2CC[C@@H](SCCC(=O)O)[C@@H]2C(=O)O[C@H](C(C)C)[C@H](C)/C=C/C(=O)NC\C=C\1 [Carboxylic b R,S]
Request: Order the entries by their reported t/2, beginning at the minimum. Answer by listing the labels in the order asked for.
Result: b, a, d, c

====

# System: ribosomes
# procedure.summary: in vitro activity: binding to free ribosomes, VS1 fluorescence with erythromycin displacement
# applied.conditions: in vitro Activity of VM1-Ester Derivatives; together with VS1, fluorescence
property: kobs (s⁻¹)

Worked cases, kobs given:
{"columns": ["smiles.input", "test.target", "property", "quantitative.readout"],
 "data": [
  ["CC1=C\\[C@@H](O)CC(=O)Cc2nc(co2)C(=O)N2CCC=C2C(=O)O[C@H](C(C)C)[C@H](C)/C=C/C(=O)NC\\C=C\\1", "ribosomes", "kobs", 0.068],
  ["CC1=C\\[C@@H](O)CC(=O)Cc2nc(co2)C(=O)N2CC[C@@H](SCCCCC(=O)OCC(Cl)(Cl)Cl)[C@@H]2C(=O)O[C@H](C(C)C)[C@H](C)/C=C/C(=O)NC\\C=C\\1", "ribosomes", "kobs", 0.020],
  ["CC1=C\\[C@@H](O)CC(=O)Cc2nc(co2)C(=O)N2CC[C@@H](SCCC(=O)OCC(Cl)(Cl)Cl)[C@@H]2C(=O)O[C@H](C(C)C)[C@H](C)/C=C/C(=O)NC\\C=C\\1", "ribosomes", "kobs", 0.021]
]}

1 = CC1=C\[C@@H](O)CC(=O)Cc2nc(co2)C(=O)N2CC[C@@H](SCC(=O)OCC(Cl)(Cl)Cl)[C@@H]2C(=O)O[C@H](C(C)C)[C@H](C)/C=C/C(=O)NC\C=C\1
2 = CC1=C\[C@@H](O)CC(=O)Cc2nc(co2)C(=O)N2CC[C@H](SCCC(=O)OCC(Cl)(Cl)Cl)[C@H]2C(=O)O[C@H](C(C)C)[C@H](C)/C=C/C(=O)NC\C=C\1
Request: Looking at 1 and 2 , which one comes out lower in kobs terms? Record your answer as the label of the chosen record.
Result: 2

====

# Test system: ribosomes
# procedure.summary: in vitro activity: binding to free ribosomes, VS1 fluorescence with erythromycin displacement
# applied.conditions: in vitro Activity of VM1-Carboxylic Acid Derivatives; together with VS1, fluorescence
property: kobs (s⁻¹)

{"columns": ["compound", "kobs [s⁻¹]"],
 "data": [
  ["CC1=C\\[C@@H](O)CC(=O)Cc2nc(co2)C(=O)N2CC[C@@H](SCCCCC(=O)O)[C@@H]2C(=O)O[C@H](C(C)C)[C@H](C)/C=C/C(=O)NC\\C=C\\1 [Carboxylic c R,S]", 0.019],
  ["CC1=C\\[C@@H](O)CC(=O)Cc2nc(co2)C(=O)N2CC[C@H](SCCCCC(=O)O)[C@H]2C(=O)O[C@H](C(C)C)[C@H](C)/C=C/C(=O)NC\\C=C\\1 [Carboxylic c S,R]", 0.015]
]}

I = CC1=C\[C@@H](O)CC(=O)Cc2nc(co2)C(=O)N2CC[C@@H](SCCC(=O)O)[C@@H]2C(=O)O[C@H](C(C)C)[C@H](C)/C=C/C(=O)NC\C=C\1 [Carboxylic b R,S]
II = CC1=C\[C@@H](O)CC(=O)Cc2nc(co2)C(=O)N2CCC=C2C(=O)O[C@H](C(C)C)[C@H](C)/C=C/C(=O)NC\C=C\1 [VM1, virginiamycin M1]
Request: Looking at I and II , which one comes out lower in kobs terms? Record your answer as the label of the chosen record.
Result: I
(I: 0.003 s⁻¹, II: 0.068 s⁻¹)
